Reference for the values: patent US20230357271A1

Tested on: human acute monocytic leukemia cell strain THP-1
Experiment: LPS-stimulated TNFα production inhibition test using THP-1 cells
Type: cell-based
Details: Homo sapiens, THP-1, 4 h, LPS 2.5 ng/mL, TNFα by HTRF
Description: By the THP-1 assay, influence of a test compound on the TNFα production induced by LPS stimulation can be evaluated. […] The fluorescence intensity ratio for the wavelengths of 620 and 665 nm (620 nm/665 nm) was measured with a microplate reader, and the amount of TNFα in the supernatant was calculated by using a calibration curve. […]
MEASURED METRIC: IC50 (µM)
Reply numerically in µM, unit not repeated.

These recorded examples may help you get a feel for the data.
1. CCCOCc1ncc(-c2ccc3ncc4cc3c2OCCCOC(=O)[C@@H]2C[C@H](CCN2)N4)cn1
0.023
2. CN1CC[C@H]2C[C@H]1C(=O)NCCCOc1c(-c3cnc(CO)nc3)ccc3ncc(nc13)N2
0.165
3. CN1CC[C@H]2C[C@H]1C(=O)NCCCOc1c(-c3cnc(CO)s3)ccc3ncc(nc13)N2
0.073

Request: Identify the measured IC50 of "CCCOCc1ncc(-c2ccc3ncc4nc3c2OCC(F)(F)CNC(=O)[C@@H]2C[C@H](CCN2C)N4)cn1" for human acute monocytic leukemia cell strain THP-1.
Response: 0.124

Request: Field entry: "CCN1CC[C@H]2C[C@H]1C(=O)NCCCOc1c(-c3cnc(CO)s3)ccc3ncc(nc13)N2"
Response: 0.092
